- Test system: UO-31 renal
- assay name: NCI-60 one-dose screen, 48 h (100 = growth as untreated, 0 = no growth, -100 = all killed)
- condition label: 10 µM unless noted
The panel holds about 83,000 compounds, 20% with a hit somewhere; the sample as a whole holds those more often.
property: growth (%)
Give just the numeric value; % need not be written.

Name the recorded growth for COc1cnc2c(c1)C(=O)c1c-2n(CCCNC(C)C)c(=O)c2cc(Cl)ccc12 .
-81.7

Name the recorded growth for N#Cc1ccc(-c2ccc(-c3cccs3)o2)cc1F .
73.7

Name the recorded growth for COC1(OC)C2(Cl)CCC1(Cl)C(Cl)=C2Cl .
94.6

Name the recorded growth for CCN(CC)CCNC(=O)n1cc(-c2ccncc2)c(-c2ccc(Cl)c(OC)c2)n1 .
69.2

Name the recorded growth for O/N=C1\c2ccccc2-c2ccc(Br)cc21 .
81.6

Name the recorded growth for CN(C)c1nc(-c2ccco2)n2nc(-c3ccc(Cl)cc3)cc2n1 .
20.7

Name the recorded growth for CC(=O)c1ccc(Br)c([N+](=O)[O-])c1 .
90.7

Name the recorded growth for COc1ccc(C2NC(=O)c3cc4c(cc3N2)OCO4)cc1 (configuration not stated) .
67.3

Name the recorded growth for COc1ccc(C(=O)OC2C(OC3C(O)COC(O[C@H]4C[C@H]5[C@@H]6CC=C7C[C@@H](O)CC[C@]7(C)[C@H]6CC[C@]5(C)[C@H]4[C@H](C)C(=O)CCC(C)C)C3OC(=O)C(C)C)OCC(O)C2O)cc1 (some centres not stated) .
-15.2

Name the recorded growth for O=C(CSc1nc2c(n1Nc1ccccc1)-c1ccccc1SC2)Nc1nccs1 .
63.1

Name the recorded growth for CN(C)c1ccc(C2(Cl)c3ccccc3N(C)c3ccccc32)cc1 .
71.8

Name the recorded growth for CCN(CCC#N)c1ccccc1 .
89.1

###

- Test system: SK-MEL-5 melanoma
- assay name: NCI-60 one-dose screen, 48 h (100 = growth as untreated, 0 = no growth, -100 = all killed)
- condition label: 10 µM unless noted
Compounds without any hit were thinned out: in the full panel of roughly 83,000, 20% have a hit.
Mark Criterion met for reported growth of 80% or greater; mark Criterion not met for anything smaller.

Tell me whether growth is at least 80% here: CSc1nc(N)c2[nH]c(-c3cc4ccccc4[nH]c3=O)nc2n1
Criterion met

Tell me whether growth is at least 80% here: NC(=O)N/N=C\c1ccc([N+](=O)[O-])o1
Criterion met

Tell me whether growth is at least 80% here: COc1cc2c(c(OC)c1O)C(=O)C(OC)C(c1ccc(O)c(O)c1)O2 (stereo not given)
Criterion not met

Tell me whether growth is at least 80% here: C[N+](C)(C)CC(=O)N/N=C\c1ccco1
Criterion met

Tell me whether growth is at least 80% here: OCCN(CCO)c1ccc2ccccc2c1
Criterion met

Tell me whether growth is at least 80% here: O=C(CSc1nnc(Cc2ccccc2Nc2c(Cl)cccc2Cl)n1-c1ccccc1)N1N=C(c2ccc3ccccc3c2)CC1c1ccc(Cl)cc1 (stereo not given)
Criterion met

Tell me whether growth is at least 80% here: ClC1=NC(Cl)C(Cl)=N/C1=N\c1ncn[nH]1 (stereo not given)
Criterion not met

Tell me whether growth is at least 80% here: O=c1nc(-c2ccccc2)c2cc(-c3ccc(N4CCOCC4)cc3)ccc2[nH]1
Criterion met

Tell me whether growth is at least 80% here: CCCCc1nc(Cl)c(C2CC(c3ccc(S(N)(=O)=O)cc3)=NN2c2cc(Cl)cc(Cl)c2)[nH]1 (stereo not given)
Criterion not met

###

- Test system: UACC-62 melanoma
- assay name: NCI-60 one-dose screen, 48 h (100 = growth as untreated, 0 = no growth, -100 = all killed)
- condition label: 10 µM unless noted
- Method: Growth inhibition of the UACC-62 human tumor cell line is measured as a screen for anti-cancer activity. Cells are grown in 96 well plates and exposed to the test compound for 48 hours. Compounds are tested at a single concentration, which is 10^-5 M for most compounds. The reported endpoint is percent growth (GI% or GIPRCNT), where numbers from 0 - 100% represent growth inhibition, and numbers from -100% - 0 represent cell death. For example, a value of 40 represents 60% growth inhibition. […]
The panel holds about 83,000 compounds, 20% with a hit somewhere; the sample as a whole holds those more often.
property: growth (%)
Give just the numeric value; % need not be written.

Could you share what growth was measured for O=S1(=O)NCCN1CCNc1nccc(-c2c(-c3cccc(O)c3)nc3sccn23)n1 , tested on UACC-62 melanoma?
6.31

Could you share what growth was measured for c1ccc2oc(-c3cnc4nonc4n3)cc2c1 , tested on UACC-62 melanoma?
79.6

Could you share what growth was measured for CCCCCN(CCCCC)C(=O)C(CCC(=O)O)NC(=O)c1ccc(Cl)c(Cl)c1 (stereo unspecified) , tested on UACC-62 melanoma?
98.4

Could you share what growth was measured for C/C(=N\Nc1ccc([N+](=O)[O-])cn1)c1ccc(N)cc1 , tested on UACC-62 melanoma?
99.1

Could you share what growth was measured for CCOC(=O)Cc1cc(Br)c(OCc2ccccc2)c(Br)c1 , tested on UACC-62 melanoma?
70.8

Could you share what growth was measured for COc1cc(OC)c(Cl)cc1N , tested on UACC-62 melanoma?
97.8

###

- System: SW-620 colon
- assay name: NCI-60 one-dose screen, 48 h
- condition label: 10 µM unless noted
This is part of a sample that, as a whole, favours compounds with a hit. Of some 83,000 tested, about 20% had one in any assay. Activity calls are given as the source filed them. Rule for the calls: active = growth percent below 10; inactive = the rest.
A correct response names exactly one class from class 1 for active, class 0 for inactive

Called result for O=C(NCCN1CCCC1)n1cc(-c2ccncc2)c(-c2cc(O)cc(Cl)c2)n1
class 0

Called result for COc1ccc(C(=O)O)cc1.[Ag]
class 1

Called result for CCOC(=O)Cn1c(-c2nonc2NC(=O)c2ccccc2F)nc2ccccc21
class 0

Called result for COc1cccc(-c2nc3sccn3c2-c2ccnc(NCCN3CCCNS3(=O)=O)n2)c1
class 0

Called result for CC(=O)O[C@@H]1CC2C(C)(C)CCCC2(C)C2=C1C(=O)C(C(C)C)=CC2=O (stereo partly specified)
class 1

Called result for O=C(C(=O)N1CCCC1)c1cn(CCCn2cc(C(=O)C(=O)N3CCCC3)c3cc(Br)ccc32)c2ccc(Br)cc12
class 0

Called result for CC(C)(C)c1nn(-c2ccccc2)c2c1C(=O)CSC(c1ccc3c(c1)OCO3)N2 (stereo unspecified)
class 0

Called result for O=C1/C=C/[C@@H](O)[C@@H]2C[C@@H](O)C[C@H]2/C=C/CCC[C@H]([C@@H](O)CO)O1
class 0

Called result for CCCCCCCCCCCCNC(=O)N[C@H](C(=O)N[C@H]1/C=C/OCCNC(=O)/C=C/[C@H](C(C)C)NC1=O)C(C)C
class 0

Called result for CCOC(=O)c1cnc(SCC)nc1SC#N
class 0

Called result for CNC(=O)c1c(NC(=O)c2cccc(C(F)(F)F)c2)sc2c1CCC(=O)C2
class 1

Called result for NC(=O)N/N=C\c1ccc([N+](=O)[O-])o1
class 0

Called result for CC(C)(C)c1ccc(C(=O)Nc2sc3cc(O)ccc3c2C(N)=O)cc1
class 0

Called result for Nc1c(C(=O)Nc2ccccc2)sc2nc3c(cc12)C(=O)CCC3
class 0

Called result for Oc1c(C(Nc2ccccc2Br)c2ccccc2)ccc2cccnc12 (stereo unspecified)
class 0

Called result for CCOC(=O)c1cc(C(=O)OCC)c(C)nc1C
class 0

Called result for COc1cc(CN(CCC(O)N2CCCC2=O)Cc2ccc3c(c2)OCO3)cc(OC)c1OC (stereo unspecified)
class 0

Called result for CS(=O)(=O)c1ccc(C(=O)N/N=C/c2ccccc2O)cc1
class 0

Called result for CC(C)c1nc2ccccc2n1CC(=O)N/N=C/c1cccc(O)c1
class 0

Called result for CC1CCN(CCCCCOc2ccc3oc4ccc(Cl)cc4c(=O)c3c2)CC1
class 0

Called result for O=[N+]([O-])c1ccc(N/N=C\c2ccc(O)cc2O)nc1
class 0

Called result for Cc1ccc(C(=O)CC(=O)C(F)(F)C(F)(F)C(F)(F)F)s1
class 0

Called result for CCCCCc1c(C)[nH]c(/C=C2\N=C(c3ccc[nH]3)C=C2Oc2ccc(OC)cc2)c1C
class 1

Called result for COc1ccc(/C=C/c2nc(NCCCN(C)C)c3ccccc3n2)cc1
class 1

Called result for N=C(N)c1ccc(-c2ccc(-c3ccco3)o2)cc1F
class 1

Called result for COc1cc(C2CC(c3ccc(C)cc3)=NN2C=O)ccc1Oc1ccnc2cc(Cl)ccc12 (stereo unspecified)
class 0

Called result for COc1ccc(-c2cc(-c3ccc(OC)cc3)c3sc(=O)[nH]c3n2)cc1
class 0

Called result for C=C(C)[C@@H]1CC[C@]2(C(=O)O)CC[C@]3(C)[C@H](CC[C@@H]4[C@@]5(C)C[C@@H](CC#Cc6ccc(C(C)=O)s6)[C@H](O)C(C)(C)[C@@H]5CC[C@]43C)[C@@H]12
class 0

Called result for COc1cc2c(=O)n(CCCN(C)C)c3c4cc[nH]c4ncc3c2cc1OC
class 0

Called result for CC(C)(C)c1cc(C[P+](c2ccccc2)(c2ccccc2)c2ccccc2)cc(C(C)(C)C)c1O
class 0

Called result for O=[N+]([O-])c1ccc(Sc2nc(Cl)nc(NC3CCCC3)n2)cc1
class 1

Called result for CC1=C(/C=C/C(C)=C/C=C(C(=O)O)\C(C)=C\C(=O)O)C(C)(C)CCC1
class 0

Called result for CC(=O)Cc1ccccn1
class 0

Called result for Nc1c(C(=O)Nc2cccc(Cl)c2)sc2nc3c(cc12)C(=O)CCC3
class 0

Called result for COc1ccc(-c2cc(C(=O)Nc3ccc(Br)cc3)nc3[nH]c(=O)sc23)cc1
class 0

Called result for Fc1ccc(-c2nc(-c3ccc(-c4nc5ccc(F)cc5[nH]4)cc3)no2)cc1
class 0

Called result for CCSc1cnnc2ccccc12
class 0

Called result for COc1cc(C2CC(c3ccc(Cl)cc3)=NN2C(C)=O)ccc1Oc1ccnc2cc(Cl)ccc12 (stereo unspecified)
class 0

Called result for Cc1cc([N+](=O)[O-])c(C)cc1N
class 0

Called result for O=C(O)c1ccccc1Oc1cc(-c2ccco2)nc(OCCN2CCOCC2)n1
class 0

Called result for COc1ccc2nc(-c3ccc(-c4noc(-c5ccc(Cl)cc5)n4)cc3)[nH]c2c1
class 0
